Where these numbers come from: PubChem BioAssay (NCI)

System: M14 melanoma
Test Method Notes: NCI-60 one-dose screen, 48 h (100 = growth as untreated, 0 = no growth, -100 = all killed)
Condition Label: 10 µM unless noted
About 83,000 compounds went through this panel and 20% of them were active in at least one assay; those are over-represented in the sample as a whole.
Endpoint Label: growth (%)
Expressed in %, but write only the number.

molecule=COc1ccc(-c2nc(/C=C3/C(=O)Nc4ccc(F)cc43)c3ccccn23)cc1 endpoint_label=growth numeric_result=106
molecule=Cc1c(C(=N)C(C#N)C#N)c(=N)oc2c1ccc1ccccc12 endpoint_label=growth numeric_result=88
molecule="Cc1ccc2[nH]c(=O)c3c(c2c1)Oc1ncn2nc(-c4ccco4)nc2c1C3c1ccc(Cl)cc1 (stereo not given)" endpoint_label=growth numeric_result=100
molecule=OCCCCCCNc1ncnc2cc(Cl)ccc12 endpoint_label=growth numeric_result=96.3

Form field: growth recorded for C=C1CCC2C3(C)COC(c4ccc(N(C)C)cc4)OC3CCC2(C)C1C/C=C1/C(=O)OCC1O (stereo not given) with M14 melanoma (enter value)
71.7

Please tell me: growth of COc1ccc(Nc2ncccc2C(=O)NCc2cn(Cc3cccc(Oc4ccccc4)c3)nn2)cc1 , system M14 melanoma?
38.7

Please state recorded growth (tested on M14 melanoma) of c1cc(C2=N[C@@H]3c4ccccc4C[C@@H]3O2)nc(C2=N[C@@H]3c4ccccc4C[C@@H]3O2)c1
99.4

Observed growth on M14 melanoma for C=C1CCC2C(C)(CO)C(O)CCC2(C)C1C/C=C1/C(=O)OCC1Oc1ccccc1C (stereo not given) , please.
67.1

So what growth did N[C@@H]1CCN(C(=O)c2cc3cc(Cl)c(F)c(F)c3[nH]2)C1 get with M14 melanoma?
89.8

Short answer please: growth, M14 melanoma, entry Clc1cc(Cl)cc(-c2ccc(-c3ccc(/C=N/NC4=NCCN4)cc3)s2)c1
94.4

Form field: growth recorded for COc1ccc(-c2ccc(-c3ccc(C(=N)N)cn3)s2)cc1OC with M14 melanoma (enter value)
97.4

Form entry - test system: M14 melanoma; read-out: growth; molecule: COc1ccc(-c2cnnn2-c2nonc2-n2cccc2)cc1OC
39.9

Lab note: need growth for C=C1CCC2C3(C)COC(C)(C)OC3CCC2(C)C1C/C=C1/C(=O)OCC1Oc1ccccc1OC (stereo not given) on M14 melanoma, anyone have it?
72.3

Give growth (M14 melanoma) of the following molecule: CN(C[C@H]1Cc2c(cccc2N2CCN(c3ncccn3)CC2)CN1)[C@H]1CCCc2cccnc21
53.7

Notebook: pull reported growth for M14 melanoma, entry COc1ccc(N2CCN(Cc3cc(C(=O)/C=C/c4c[nH]c5ccccc45)ccc3O)CC2)cc1
102

Please state recorded growth (tested on M14 melanoma) of COc1ccc(-c2c(N)n[nH]c2-c2cc(OC)c(OC)c(OC)c2)cc1
5.82

Give growth (M14 melanoma) of the following molecule: NC1=NC(SCc2ccccc2CCl)c2ncn(Cc3ccccc3CCl)c2N1 (stereo not given)
40

Param readout = growth; param system = M14 melanoma; param query = COc1ccc(CNCCCN2C(=O)c3ccc4c5c(ccc(c35)C2=O)C(=O)N(CCCNCCCCNCCCN)C4=O)c(OC)c1OC ; response: value
5.46

Report growth for Cc1ccc2nc(Cl)cc(=O)n2c1 tested on M14 melanoma.
104

Write down the reported growth of CCOC(=O)c1ccc(NC(=O)N2CC(C)OC(C)C2)cc1 (stereo not given) , test system: M14 melanoma.
107

* * *

Tested on: MCF7 breast
Test Method Notes: NCI-60 one-dose screen, 48 h (100 = growth as untreated, 0 = no growth, -100 = all killed)
Condition Label: 10 µM unless noted
About 83,000 compounds went through this panel and 20% of them were active in at least one assay; those are over-represented in the sample as a whole. Active and inactive are the calls of the source. The calls were made as follows: active = growth percent below 10; inactive = the rest.
Catalogue of molecules with associated growth

// known answers, use as guide
item_smiles=COc1ccc(C(=O)N2NC(=O)/C(=C/c3ccc(Br)cc3)N=C2c2ccccc2)cc1 endpoint_label=growth result="85.1% (inactive)"
item_smiles=O=C(N/N=C/C=C\c1ccccc1)C(=O)N/N=C/C=C/c1ccccc1 endpoint_label=growth result="100% (inactive)"
item_smiles=O=C1CS/C(=N\Nc2cc(=O)[nH]c3ccccc23)N1c1ccccc1 endpoint_label=growth result="92% (inactive)"
item_smiles=N/C(=N\C(N)=N\c1nc2ccccc2s1)c1ccncc1 endpoint_label=growth result="42.4% (inactive)"
item_smiles=COC1=C(OC)C(=O)C(CCCCCCCCCC[P+](c2ccccc2)(c2ccccc2)c2ccccc2)=C(C)C1=O endpoint_label=growth result="-49.9% (active)"
item_smiles=O=C(Nc1ccncc1)C(=O)c1cn(S(=O)(=O)c2ccc(Oc3ccccc3)cc2)c2ccccc12 endpoint_label=growth result="94.3% (inactive)"

Now for another entry.
Given the entry COc1cccc(/C=C2\Oc3cc(OCCCN4CCCC4)ccc3C2=O)c1OC , report its measured growth.
87% (inactive)

* * *

Test system: RPMI-8226 leukemia
Test Method Notes: NCI-60 one-dose screen, 48 h
Condition Label: 10 µM unless noted
The panel holds about 83,000 compounds, 20% with a hit somewhere; the sample as a whole holds those more often. Active and inactive are the calls of the source. Rule for the calls: active = growth percent below 10; inactive = the rest.
Entry note: the call must match one of active, inactive

Name the outcome recorded for COc1ccc(C2C(C#N)=C(N)Oc3c2ccc2ccccc32)cc1 (stereo not given) in the assay.
inactive

Which outcome was assigned to COc1cc2c(cc1OCCCN1CCN(CCCn3c4ccccc4c4ccccc43)CC1)N=C[C@@H]1CCCN1C2=O in this test?
active

* * *

Test system: MDA-MB-231 breast
Test Method Notes: NCI-60 one-dose screen, 48 h
Condition Label: 10 µM unless noted
About 83,000 compounds went through this panel and 20% of them were active in at least one assay; those are over-represented in the sample as a whole. Activity calls are given as the source filed them. The calls were made as follows: active = growth percent below 10; inactive = the rest.
Result category, one only: Y (active), N (inactive)

compound=O=C(O)c1cn(C2CC2)c2cc(N3CCN(C(=O)/C=C/c4ccc(Cl)cc4)CC3)c(F)cc2c1=O assigned_category=N
compound=O=C(NCCNc1nccc(-n2ccc3cccnc32)n1)c1ccc(C(F)(F)F)cc1 assigned_category=N
compound=COc1ccc(/C=C/c2c(C(C)=O)c(C)nc3ccccc23)cc1 assigned_category=N
compound=Cc1c(C(=O)/C=C/c2csc3ccccc23)[n+](=O)c2ccccc2n1[O-] assigned_category=N
compound="COc1cc(C2NN=C3c4ccccc4CCC32)cc(OC)c1OC (stereo not given)" assigned_category=N

Please let me know the test result on file for Cn1ccc(=O)c(S(N)(=O)=O)c1 .
N

In this assay, the call recorded for COc1ccc2c(c1)[nH]c(=O)c1c3cc(OC)ccc3cn21 was what?
Y

Test call, this compound: C/C=C/C1=CN2C(=O)c3cc(OC4OC(C)C(NC)C(C)(O)C4O)c(C)cc3N=C[C@@H]2C1 (stereo not given in full)
N

# lookup: test call for COc1cccc(-c2nc3sccn3c2-c2ccnc(NCCCNS(=O)(=O)c3ccc(F)cc3)c2)c1
N

How was COc1ccc(C2CC(c3ccc(OC)cc3OC)=NN2c2ccc(S(N)(=O)=O)cc2)cc1 (stereo not given) classified in this test?
N

Call for entry O=C(Nc1ccncc1)C(=O)c1cn(S(=O)(=O)c2ccc(Cl)cc2)c2ccccc12 :
N

What did this assay record as the result for C=C(C)[C@@H]1C[C@@H]2Cc3ccc(Cl)c(C)c3N1O2 ?
N

Recorded test call requested for C=C1C(=O)O[C@H]2[C@H]1CC/C(Cn1cc(CNC(=O)c3cc4ccccc4[nH]3)nn1)=C\CC[C@@]1(C)O[C@@H]21
N

Which outcome was assigned to COc1ccc(C(=O)N2NC(=O)/C(=C/c3cn(-c4ccccc4)nc3-c3ccccc3)N=C2c2ccccc2)cc1 in this test?
N

Hey, what did the test say about O=C(NNC(=S)Nc1ccccc1)c1cc2ccc1CCc1ccc(cc1)CC2 ?
N

Please state the recorded outcome for this compound: NC1=NC(SCc2ccccc2CCl)c2ncn(Cc3ccccc3CCl)c2N1 (stereo not given)
N

Would you mind telling me which call this test gave CC(C)CC1NC(C)(C)CO1 (stereo not given) ?
N

Per the assay record, what outcome was assigned to O=C1/C(=C/c2ccccc2)CN(C(=O)CCN2CCC(=NO)CC2)C/C1=C\c1ccccc1 ?
Y

Recorded test outcome, item Cc1csc(NC(c2ccc(Br)cc2)c2c(C)nc3ccccn23)n1 (stereo not given)
N

Would you mind telling me which call this test gave COc1ccc(NC(=O)c2c(Nc3ccc(OC)cc3OC)n[nH]c2N)c(OC)c1 ?
N

* * *

Test system: UACC-62 melanoma
Test Method Notes: NCI-60 one-dose screen, 48 h
Condition Label: 10 µM unless noted
Experimental: Growth inhibition of the UACC-62 human tumor cell line is measured as a screen for anti-cancer activity. Cells are grown in 96 well plates and exposed to the test compound for 48 hours. Compounds are tested at a single concentration, which is 10^-5 M for most compounds. The reported endpoint is percent growth (GI% or GIPRCNT), where numbers from 0 - 100% represent growth inhibition, and numbers from -100% - 0 represent cell death. For example, a value of 40 represents 60% growth inhibition. […]
The panel holds about 83,000 compounds, 20% with a hit somewhere; the sample as a whole holds those more often. The source made the active and inactive calls. How the source made its calls: active means growth percent below 10; inactive means the rest.
Thanks in advance; please answer with one of these: active, inactive

Short answer needed: outcome of this test for CN(C)c1cccc2c(S(=O)(=O)/N=C(\N)Nc3nc4ccccc4s3)cccc12 ?
inactive

How did this test come out for C=C1C(=O)O[C@H]2[C@H]1CC/C(Cn1cc(CNC(=O)Cc3cn(C(=O)c4ccc(Cl)cc4)c4ccc(OC)cc34)nn1)=C\CC[C@@]1(C)O[C@@H]21 ?
active
